- ASSAY_TARGET: Dopamine D2 receptor (Bos taurus)
- TEST: biochemical
- Assay type: binding, bovine
- DETAILS: bovine caudate membranes, 3H-Spiperone, RT, 75 min; read-out: D2 K1
pKi: −log10 of the molar value.
Returns Yes if the recorded pKi is greater than or equal to 7, and No otherwise.

1. CCCCCOCCN(CCC)[C@H]1CCc2c(ccc(O)c2O)C1 : Yes
2. CCCN(CCC1CCCCO1)[C@H]1CCc2c(ccc(O)c2O)C1 (stereo partly drawn) : Yes
3. CCCN(CCOC1CCCC1)[C@H]1CCc2c(ccc(O)c2O)C1 : Yes
4. CCCN(CCOC1CCC1)[C@H]1CCc2c(O)cccc2C1 : No
5. CCCN(CC1CCOC1)[C@H]1CCc2c(ccc(O)c2O)C1 (stereo partly drawn) : No
6. CCCN(CCC1CCOC1)[C@H]1CCc2c(ccc(O)c2O)C1 (stereo partly drawn) : No
7. CCCN(CCC1CCCO1)[C@H]1CCc2c(ccc(O)c2O)C1 (stereo partly drawn) : Yes
8. CCCN(CCC1CCOC1)[C@H]1CCc2c(O)cccc2C1 (stereo partly drawn) : No
9. CCCN(CC1CCCCO1)[C@H]1CCc2c(O)cccc2C1 (stereo partly drawn) : No
10. CCCN(CCOC1CC1)[C@H]1CCc2c(O)cccc2C1 : No

====

- ASSAY_TARGET: Dopamine D2 receptor (Bos taurus, UniProt P20288)
- Sequence (P20288 whole entry): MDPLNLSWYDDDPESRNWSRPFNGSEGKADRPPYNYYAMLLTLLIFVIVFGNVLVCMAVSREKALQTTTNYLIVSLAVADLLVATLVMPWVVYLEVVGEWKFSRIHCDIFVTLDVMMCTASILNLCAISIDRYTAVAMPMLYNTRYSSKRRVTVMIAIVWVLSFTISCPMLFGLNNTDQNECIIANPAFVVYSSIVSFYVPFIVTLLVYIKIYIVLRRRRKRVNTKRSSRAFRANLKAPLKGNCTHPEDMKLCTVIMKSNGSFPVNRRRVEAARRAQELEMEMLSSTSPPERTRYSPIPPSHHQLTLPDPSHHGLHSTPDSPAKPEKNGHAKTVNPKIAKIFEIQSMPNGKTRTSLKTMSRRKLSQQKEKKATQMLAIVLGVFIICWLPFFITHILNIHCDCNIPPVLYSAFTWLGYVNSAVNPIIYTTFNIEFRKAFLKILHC
- TEST: biochemical
- Assay type: binding, bovine
- DETAILS: D1 K1 / D2 K1
Give condition met when the value for Selectivity Ratio (D1 K1/D2 K1) is at least 40. Give condition not met when it is less.

1) CCCN(CCOCC)[C@H]1CCc2c(ccc(O)c2O)C1 : condition not met
2) CCCOCCN(CCC)[C@H]1CCc2c(ccc(O)c2O)C1 : condition not met
3) CCCN(CCC1CCCCO1)[C@H]1CCc2c(ccc(O)c2O)C1 (stereo partly drawn) : condition met
4) CCCN(CCOC1CC1)[C@H]1CCc2c(O)cccc2C1 : condition not met
5) CCCN(CCCOC(C)C)[C@H]1CCc2c(ccc(O)c2O)C1 : condition met

====

- ASSAY_TARGET: Dopamine D2 receptor (Bos taurus, UniProt P20288)
- TEST: biochemical
- Type: binding, bovine
- DETAILS: D1 K1 / D2 K1
Hi, to clarify the labels: class 1 covers Selectivity Ratio (D1 K1/D2 K1) from 20 upward, class 0 covers anything below 20.

1. CCCN(CCOCC1CC1)[C@H]1CCc2c(ccc(O)c2O)C1 : class 1
2. CCCN(CC1CCCCO1)[C@H]1CCc2c(O)cccc2C1 (some centres unmarked) : class 0
3. CCCCCOCCN(CCC)[C@H]1CCc2c(ccc(O)c2O)C1 : class 1
4. CCCN(CCC1CCOC1)[C@H]1CCc2c(O)cccc2C1 (some centres unmarked) : class 1
5. CCCN(CCOC(C)C)[C@H]1CCc2c(ccc(O)c2O)C1.Cl : class 1
6. CCCN(CCC1CCCO1)[C@H]1CCc2c(ccc(O)c2O)C1 (some centres unmarked) : class 1
7. CCCN(CCC1CCCCO1)[C@H]1CCc2c(O)cccc2C1 (some centres unmarked) : class 1
8. CCCN(CCCOC)[C@H]1CCc2c(O)cccc2C1 [Example 41, reference compound] : class 0
9. CCCCOCCN(CCC)[C@H]1CCc2c(ccc(O)c2O)C1 : class 1
10. CCCN(CC1CCCO1)[C@H]1CCc2c(O)cccc2C1 (some centres unmarked) : class 0
11. CCCN(CCOC1CCCC1)[C@H]1CCc2c(O)cccc2C1 : class 1
12. CCCN(CCOC(C)(C)C)[C@H]1CCc2c(ccc(O)c2O)C1 : class 1
13. CCCN(CC1CCOC1)[C@H]1CCc2c(ccc(O)c2O)C1 (some centres unmarked) : class 0
14. CCCN(CCC1CCOC1)[C@H]1CCc2c(ccc(O)c2O)C1 (some centres unmarked) : class 1
15. CCCN(CCOC1CCC1)[C@H]1CCc2c(O)cccc2C1 : class 1
16. CCN(CCC1CCCO1)[C@H]1CCc2c(O)cccc2C1 (some centres unmarked) : class 1
17. CCCN(CCC1CCCO1)[C@H]1CCc2c(O)cccc2C1 (some centres unmarked) : class 0
18. CCCN(CC1CCOC1)[C@H]1CCc2c(O)cccc2C1.Cl (some centres unmarked) : class 1
19. CCCN(CCC)C1CCc2c(O)cccc2C1 (centres unmarked) [Example 39, 5-hydroxy-2-(di-n-propyl)aminotetralin, reference compound] : class 0
20. CCCN(CCOC1CCCC1)[C@H]1CCc2c(ccc(O)c2O)C1 : class 1

====

- ASSAY_TARGET: UniProtKB P22909
- Sequence (P22909 whole entry): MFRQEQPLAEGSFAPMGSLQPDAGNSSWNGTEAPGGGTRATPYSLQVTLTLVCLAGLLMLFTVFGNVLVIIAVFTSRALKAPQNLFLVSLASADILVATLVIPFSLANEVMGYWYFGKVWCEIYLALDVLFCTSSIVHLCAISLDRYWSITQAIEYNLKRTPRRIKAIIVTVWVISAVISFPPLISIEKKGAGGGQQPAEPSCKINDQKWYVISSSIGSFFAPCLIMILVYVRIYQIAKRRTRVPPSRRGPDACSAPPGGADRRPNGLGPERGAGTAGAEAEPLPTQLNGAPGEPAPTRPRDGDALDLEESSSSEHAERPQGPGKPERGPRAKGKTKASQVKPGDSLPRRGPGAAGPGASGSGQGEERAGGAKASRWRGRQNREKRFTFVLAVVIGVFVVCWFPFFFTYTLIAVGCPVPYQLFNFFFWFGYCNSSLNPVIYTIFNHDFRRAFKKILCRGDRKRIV
- TEST: Adrenergic α2 in vitro functional test (rat vas deferens, inhibition of twitch)
- Format: biochemical
- DETAILS: concentration that produces 50% of the maximal inhibition of twitch; rat vas deferens; read-out: a2 A50
pEC50: −log10 of the molar value.
EXPERIMENTAL_READOUT: pEC50

1) CCCN(CCC1CCCO1)[C@H]1CCc2c(O)cccc2C1 (some centres unmarked) : 5.76
2) CCCN(CC1CCCCO1)[C@H]1CCc2c(O)cccc2C1 (some centres unmarked) : 6.72
3) CCCN(CCOC(C)(C)C)[C@H]1CCc2c(ccc(O)c2O)C1 : 6.84
4) CCCOCCN(CCC)[C@H]1CCc2c(ccc(O)c2O)C1 : 6.83
5) CCCN(CCOC(C)C)[C@H]1CCc2c(ccc(O)c2O)C1.Cl [Example 1, hydrochloride] : 6.66
6) CCCN(CCOCC)[C@H]1CCc2c(ccc(O)c2O)C1 : 7.73
7) CCCCCOCCN(CCC)[C@H]1CCc2c(ccc(O)c2O)C1 : 7.03
8) CCCN(CC1CCOC1)[C@H]1CCc2c(ccc(O)c2O)C1 (some centres unmarked) : 7.78
9) CCCCOCCN(CCC)[C@H]1CCc2c(ccc(O)c2O)C1 : 6.97
10) CCCN(CCCOC(C)C)[C@H]1CCc2c(ccc(O)c2O)C1 : 7.03
11) CCCN(CC1CCOC1)[C@H]1CCc2c(O)cccc2C1.Cl (some centres unmarked) [Example 21, hydrochloride] : 6.56
12) CCCN(CCOC(C)CC)[C@H]1CCc2c(ccc(O)c2O)C1 (some centres unmarked) : 6.61
13) CCCN(CCOC1CCCC1)[C@H]1CCc2c(ccc(O)c2O)C1 : 7.06
14) CCCN(CCCOC)[C@H]1CCc2c(O)cccc2C1 [Example 41, reference compound] : 6.63
15) CCCN(CC1CCCO1)[C@H]1CCc2c(O)cccc2C1 (some centres unmarked) : 5.45
16) CCCN(CCC1CCCO1)[C@H]1CCc2c(ccc(O)c2O)C1 (some centres unmarked) : 7.10
17) CCCN(CCC1CCOC1)[C@H]1CCc2c(ccc(O)c2O)C1 (some centres unmarked) : 7.83

====

We begin with a simple list: items and their reported Ki.
- ASSAY_TARGET: Dopamine D1 receptor (Bos taurus)
- Sequence (Q95136 whole entry): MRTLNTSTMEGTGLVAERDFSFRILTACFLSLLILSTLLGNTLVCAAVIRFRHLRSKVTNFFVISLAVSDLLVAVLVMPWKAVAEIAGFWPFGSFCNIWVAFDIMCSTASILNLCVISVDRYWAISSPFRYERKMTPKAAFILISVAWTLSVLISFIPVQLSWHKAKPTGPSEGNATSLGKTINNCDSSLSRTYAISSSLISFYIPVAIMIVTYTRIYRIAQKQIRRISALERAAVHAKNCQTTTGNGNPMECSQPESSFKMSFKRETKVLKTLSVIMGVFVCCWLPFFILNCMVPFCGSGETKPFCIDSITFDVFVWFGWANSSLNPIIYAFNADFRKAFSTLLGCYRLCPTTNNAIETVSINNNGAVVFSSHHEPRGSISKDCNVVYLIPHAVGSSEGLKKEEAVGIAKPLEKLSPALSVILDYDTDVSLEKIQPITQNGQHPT
- TEST: biochemical
- Format: binding, bovine
- DETAILS: bovine caudate membranes, 3H-SCH23390, 37° C., 15 min; read-out: D1 K1
EXPERIMENTAL_READOUT: Ki (µM)

1) CCCN(CCCOC(C)C)[C@H]1CCc2c(ccc(O)c2O)C1 : 5.75
2) CCCN(CC1CCOC1)[C@H]1CCc2c(ccc(O)c2O)C1 (some centres unmarked) : 1.1
3) CCN(CCC1CCCO1)[C@H]1CCc2c(O)cccc2C1 (some centres unmarked) : 6.61
4) CCCN(CCOC1CCC1)[C@H]1CCc2c(O)cccc2C1 : 8.91
5) CCCN(CCC1CCCO1)[C@H]1CCc2c(O)cccc2C1 (some centres unmarked) : 1.51

====

- ASSAY_TARGET: dopamine D2 receptor (Mus musculus, UniProt P61168)
- Sequence (P61168 whole entry): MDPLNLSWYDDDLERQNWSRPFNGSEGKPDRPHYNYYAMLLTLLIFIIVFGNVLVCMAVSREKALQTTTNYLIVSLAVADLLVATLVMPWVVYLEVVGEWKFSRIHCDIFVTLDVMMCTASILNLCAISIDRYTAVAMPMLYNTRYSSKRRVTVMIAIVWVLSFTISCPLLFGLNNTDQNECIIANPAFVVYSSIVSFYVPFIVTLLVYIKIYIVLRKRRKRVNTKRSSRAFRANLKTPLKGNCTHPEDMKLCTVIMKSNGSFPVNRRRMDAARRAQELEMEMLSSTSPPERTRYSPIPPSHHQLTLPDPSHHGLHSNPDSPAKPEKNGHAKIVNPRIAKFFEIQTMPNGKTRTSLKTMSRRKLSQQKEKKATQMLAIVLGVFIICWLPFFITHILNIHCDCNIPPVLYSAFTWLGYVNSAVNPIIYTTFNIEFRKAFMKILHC
- TEST: biochemical
- Type: biochemical
- DETAILS: concentration that produces 50% of the maximal inhibition of twitch; mouse vas deferens; read-out: D2 A50
EXPERIMENTAL_READOUT: EC50 (pM)

1. CCCN(CCOC(C)(C)C)[C@H]1CCc2c(ccc(O)c2O)C1 : 89
2. CCCN(CCCOC(C)C)[C@H]1CCc2c(ccc(O)c2O)C1 : 102
3. CCCN(CCOCC1CC1)[C@H]1CCc2c(ccc(O)c2O)C1 : 105
4. CCCN(CCOC1CCC1)[C@H]1CCc2c(O)cccc2C1 : 676
5. CCCN(CCC1CCCCO1)[C@H]1CCc2c(ccc(O)c2O)C1 (some centres unmarked) : 200

====

- ASSAY_TARGET: Dopamine D2 receptor (Bos taurus)
- TEST: biochemical
- Format: binding, bovine
- DETAILS: bovine caudate membranes, 3H-Spiperone, RT, 75 min; read-out: D2 K1
Each record here notes measured Ki.
EXPERIMENTAL_READOUT: Ki (µM)

1. CCCN(CCOC)[C@H]1CCc2c(ccc(O)c2O)C1 [Example 4] : 0.363
2. CCCN(CCCOC(C)C)[C@H]1CCc2c(ccc(O)c2O)C1 [Example 13] : 0.051
3. CCCN(CC1CCOC1)[C@H]1CCc2c(O)cccc2C1.Cl (stereo partly drawn) [Example 21, hydrochloride] : 0.151
4. CCCN(CC1CCCO1)[C@H]1CCc2c(O)cccc2C1 (stereo partly drawn) [Example 22] : 1.51
5. CCCN(CCCOC)[C@H]1CCc2c(O)cccc2C1 [Example 41, reference compound] : 0.79
6. CCCN(CCOC(C)CC)[C@H]1CCc2c(ccc(O)c2O)C1 (stereo partly drawn) [Example 5] : 0.115
7. CCCN(CCOC(C)C)[C@H]1CCc2c(ccc(O)c2O)C1.Cl [Example 1, hydrochloride] : 0.065
8. CCCN(CCOC1CCCC1)[C@H]1CCc2c(O)cccc2C1 [Example 16] : 0.062
9. CCCN(CCOC(C)(C)C)[C@H]1CCc2c(ccc(O)c2O)C1 [Example 9] : 0.054

Reference source for all entries: patent US5382596A
